Consider the following compounds and their measured pKi readings.
MEASURED ON: Neuronal acetylcholine receptor; alpha4/beta2
PROTOCOL DESCRIPTION: Potency to displace [3H]nicotine binding to Nicotinic acetylcholine receptor alpha4-beta2 immuno-isolated from M10 cells
pKi: −log10 of the molar value.

- COMPOUND: "O=[N+]([O-])/N=c1\\sccn1Cc1ccc(Cl)nc1"
  pKi: 6.77
- COMPOUND: "N=C1NCCN1Cc1ccc(Cl)nc1 [DESNITROIMIDACLOPRID]"
  pKi: 8.66
- COMPOUND: "[N-]=[N+]=Nc1ccncc1Cn1ccnc1N[N+](=O)[O-]"
  pKi: 4.02
- COMPOUND: "[N-]=[N+]=Nc1cc(CN2CCN=C2N)cnc1Cl"
  pKi: 8.59
- COMPOUND: "[N-]=[N+]=Nc1cc(Cl)ncc1Cn1ccsc1=N"
  pKi: 6.96
- COMPOUND: "[N-]=[N+]=Nc1cncc(Cn2ccsc2=N)c1"
  pKi: 8.08
- COMPOUND: "[N-]=[N+]=Nc1cc(CN2CCNC2=N[N+](=O)[O-])cnc1Cl [5-AZIDOIMIDACLOPRID]"
  pKi: 6.47
